# Assay overview: binders of probe aFGF10 on microarray, primary screen, stem cell growth factor project, biochemical, small-molecule microarray, fluorescence 635/667 (AID 1071);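 further: score merges 667 nm spot intensity and signal to noise from triplicate slides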
# Condition: higher = more signal
Measure: composite z-score
The response must contain the number and no unit.

Worked set:
INSERT INTO results (compound, result_value) VALUES
  ('CO[C@H]1COC(=O)[C@H](C)NC(=O)CC=C[C@@H](C)[C@H](NS(=O)(=O)c2ccc(C)cc2)COC(=O)[C@@H](OCc2ccccc2)C=C[C@@H]1C', -0.0799),
  ('C=CC[C@]1(C(=O)NCC(O)CO)N=C(c2ccc(OCCCO)cc2)O[C@H]1c1ccccc1 (some centres not stated)', -0.843),
  ('CO[C@]12C=C(Br)[C@@H](C[C@@H]1c1ccccc1)[C@@]1(CO1)C2=O', 0.229),
  ('COC(=O)C1=C(C)N(Cc2ccccc2)c2c(C(=O)OC)c(C(=O)OC)c(C(=O)OC)c(=O)n2[C@@H]1c1ccccc1', 0.282),
  ('O=C1OCCC/C=C\[C@H]2OC34C=CCN(CCN5CCOCC5)C(=O)[C@H]3N(CCCCCO)C(=O)[C@@H]4C12 (some centres not stated)', -0.156),
  ('C=CCN1C(=O)[C@@]2(Cc3ccccc3)N=C(c3ccc(OCCCO)cc3)O[C@H]2c2ccccc21', 0.0096);

Moving on to another compound below.
## Input Consider the compound shown here: C[C@H]1C2[C@H](Cc3ccccc3)NC(=O)[C@]23C(=O)N[C@H](Cc2ccccc2)C(=O)N[C@@H](Cc2ccccc2)C(=O)NC/C=C\C/C=C/C3[C@@H]2O[C@]12C (some centres not stated) What is its recorded composite z-score?
## Output 0.388

---

# Target system: Follistatin-related protein 3 (Homo sapiens)
# Assay overview: FSTL3 binders on small-molecule microarrays, primary screen, biochemical, small-molecule microarray, 635 nm fluorescence (AID 1105);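 further: score merges emission near 667 nm and signal to noise per printed spot across three slides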
# Condition: FSTL3 binding, higher = more signal
# cutoff -0.09 applies to composite z-score; >= gives fulfilled, < gives not fulfilled

INSERT INTO measurements (compound, class_assignment) VALUES
  ('CN1C(=O)C2C=CC(C(O)c3ccc(N(C)C)cc3)N(Nc3ccc([N+](=O)[O-])cc3[N+](=O)[O-])C2C1=O (configuration not stated)', 'fulfilled'),
  ('O=C1OCCC/C=C\[C@H]2OC34C=CCN(CCN5CCOCC5)C(=O)[C@H]3N(CCCCCO)C(=O)[C@@H]4C12 (some centres not stated)', 'not fulfilled'),
  ('O=C1OCC=C[C@H]2OC34C=CCN(Cc5ccccc5)C(=O)[C@H]3N(CCO)C(=O)[C@@H]4[C@@H]12 (some centres not stated)', 'not fulfilled'),
  ('C[C@]1(C(=O)NCCN2CCOCC2)c2ccccc2C(=O)N(Cc2ccccc2)[C@H]1c1ccc(CO)cc1', 'not fulfilled'),
  ('CCOC(=O)C1=CCC(c2cccc3ccccc23)N(S(=O)(=O)c2ccc(C)cc2)C1 (configuration not stated)', 'fulfilled');

For the next question, use this compound.
## Input Hi team, for COCCOC(=O)N1C(=O)[C@@]2(c3cc(C#CCCO)ccc31)[C@H](c1ccc(O)cc1)N1[C@H](c3ccccc3)[C@H](c3ccccc3)OC(=O)[C@H]1[C@@H]2C(=O)Nc1nc2ccccc2s1 , is the recorded composite z-score at or above -0.09?
## Output fulfilled

---

# Test system: Sam68 (KHDRBS1)
# Assay overview: Sam68 small-molecule binders, primary screen, biochemical, small-molecule microarray, 635 nm fluorescence (AID 1125);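 further: score merges 667 nm channel intensity with signal to noise over triplicate slides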
# Condition: small-molecule microarray binding, higher = more signal
Entries and their measured composite z-score follow.
Hey, just send me the number, nothing else.

Known results for compounds:
INSERT INTO results (compound, result_value) VALUES
  ('CN1C(=O)C2C=CC(C(O)c3ccc(N(C)C)cc3)N(Nc3ccc([N+](=O)[O-])cc3[N+](=O)[O-])C2C1=O (centres undefined)', 1.21),
  ('O=C1C[C@@](C(=O)NC2CC2)(c2ccc([N+](=O)[O-])cc2)[C@@H](c2ccc(CO)cc2I)N1CC12CC3CC(CC(C3)C1)C2', 1.12),
  ('COc1ccc(C(=O)Nc2ccc(CN3C(=O)[C@]4(O[C@H](CCn5cc(CCO)nn5)[C@@H]([Si](C)(C)c5ccc(OC)cc5)[C@@H]4C)c4ccccc43)cc2)cc1', 1.32),
  ('CCCC/C=C/[C@H]([C@@H](O)Cc1ccccc1)N(CC#Cc1ccccc1)Cc1ccccc1Br', -0.61),
  ('C=CCNC(=O)[C@H]1[C@@H]2C(=O)O[C@@H](c3ccccc3)[C@@H](c3ccccc3)N2[C@@H](c2ccccc2OCCO)[C@]12C(=O)N(C(=O)OCCOC)c1ccc(C#CCNC(N)=O)cc12', 1.29);

## Input State the recorded composite z-score for this entry: CO[C@H]1COC(=O)[C@H](C)NC(=O)CC=C[C@@H](C)[C@H](NS(=O)(=O)c2ccc(C)cc2)COC(=O)CC=C[C@@H]1C
## Output -1.03

## Input Param item = Cc1ccc(N2C(=O)c3ccccc3[C@@H](C(=O)NCc3ccccc3)[C@@H]2c2ccc(CO)cc2)nc1 ; retrieve measured composite z-score.
## Output -0.931

## Input Reported composite z-score, compound Cc1ccc(N2C(=O)c3ccccc3[C@](C)(C(=O)NCC(C)C)[C@@H]2c2ccc(CO)cc2)nc1 : ____
## Output -0.68

## Input Which composite z-score reading was recorded for the compound Cc1ccc(S[C@]2(C(=O)NC(C)C)CC(=O)N(Cc3cc(C(F)(F)F)cc(C(F)(F)F)c3)[C@@H]2c2ccc(CO)cc2I)cc1 ?
## Output -0.733

## Input Give its composite z-score value. Item: CN(C)c1ccc(C(O)C2C=CC3C(=O)NC(=O)C3N2Nc2ccc(Cl)cc2Cl)cc1 (centres undefined)
## Output 0.708

## Input What value of composite z-score has been reported for the following compound? CC(C)CN1C(=O)[C@@]2(Cc3ccccc31)c1ccccc1C(=O)N(C1CCCCC1)[C@H]2c1ccc(CO)cc1
## Output -0.18

---

# Test system: Wnt5a (protein binding on small-molecule microarray)
# Assay overview: Wnt5a binders on small-molecule microarray, primary screen, biophysical, 635/667 nm fluorescence (AID 1142);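 further: fluorescence read at 667 nm with signal to noise per printed feature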
# Condition: 635 nm fluorescence, higher = more signal
// values below are reported composite z-score
// return just the number, without any unit appended

// known answers, use as guide
INSERT INTO measurements (chemical_string, measure, result_value) VALUES
  ('CO[C@H]1COC(=O)CC=C[C@H](C)[C@@H](OC)COC(=O)CC=C[C@@H]1C', 'composite z-score', 0.27),
  ('COc1cc2c(cc1OC)CN(C(=O)[C@H]1[C@@H]3C(=O)O[C@@H](c4ccccc4)[C@@H](c4ccccc4)N3[C@@H](c3ccc(O)cc3)[C@]13C(=O)Nc1ccc(C#CC4(O)CCCCCC4)cc13)CC2', 'composite z-score', 0.723),
  ('COc1cccc([C@H]2N[C@H](C(=O)O)CC[C@@H]2C)c1', 'composite z-score', 0.04);

## Input Recorded composite z-score for C=C[C@H](OC)[C@@H](OC(=O)Nc1ccc(SC)cc1)c1ccc(OC)c(O)c1 , please?
## Output -0.29

## Input Endpoint output: composite z-score of COC(=O)[C@H]1[C@@H]2COc3ccccc3[C@H]2N[C@H]1C(=O)OC . Value?
## Output -0.0215

## Input Param item = CCOC(=O)C1=CC[C@@H](c2ccccc2)N(S(=O)(=O)c2ccc(C)cc2)[C@H]1C ; retrieve measured composite z-score.
## Output 0.532

## Input Please report the recorded composite z-score for CCCC=C(CCC)[C@@H](NS(=O)(=O)c1ccc(C(F)(F)F)cc1)c1ccc(-c2ccccc2)cc1 .
## Output 0.281

## Input Value lookup for composite z-score; key = Cc1ccc([C@@H]2CC=C(C(=O)O)[C@H](c3ccccc3)N2S(=O)(=O)c2ccc(C)cc2)cc1
## Output 0.382

---

# Assay overview: small-molecule microarray binders of probe aLefty2, primary screen, biochemical, biotinylated probe, 635/667 nm fluorescence (AID 1094);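 further: score merges spot fluorescence near 667 nm with spot signal-to-noise ratio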
# Condition: higher = more signal
Using composite z-score as the sorting value, the categories are Low = under -0.08, Mid = from -0.08 up to 0.1, High = 0.1 and over

Observe how each entry below is paired with its result.
INSERT INTO measurements (compound, class_assignment) VALUES
  ('COC(=O)c1ccc(C#CC(NP(=O)(c2ccccc2)c2ccccc2)c2ccccc2)cc1 (stereo unspecified)', 'High'),
  ('N#Cc1ccc(NN2C(C(O)CCc3ccccc3)C=CC3C(=O)N(c4ccccc4)C(=O)C32)cc1 (stereo unspecified)', 'High'),
  ('Cc1cc(C)c(C(O)C2C=CC3C(=O)N(C)C(=O)C3N2N2CCCCC2)c(C)c1 (stereo unspecified)', 'High'),
  ('CO[C@H]1COC(=O)[C@H](C)NC(=O)CC=C[C@@H](C)[C@H](NS(=O)(=O)c2ccc(C)cc2)COC(=O)CC=C[C@@H]1C', 'Low'),
  ('COc1ccc(-c2cc3c(c(-c4ccccc4)n2)[Si](C(C)C)(C(C)C)O[C@H]3c2ccccc2)cn1', 'Low'),
  ('CC(=O)NCCCC[C@@H]1NC(=O)[C@H]2C[C@@H](C(=O)NCCCCCCN(C)C)[C@@H](c3ccc(O)cc3)N2C1=O', 'Mid'),
  ('COCCCNC(=O)[C@@]1(Sc2ccc(C)cc2)CC(=O)N(Cc2cc(C(F)(F)F)cc(C(F)(F)F)c2)[C@@H]1c1ccc(CO)cc1I', 'Low'),
  ('CC(C)[Si](OCC[C@H]1O[C@]2(C(=O)N(Cc3ccccc3)c3ccccc32)[C@@H](C)[C@@H]1[Si](C)(C)O)(C(C)C)C(C)C', 'Low');

## Input Band assignment needed for O=C/C=C/c1ccc(/C=C/c2ccccc2)cc1 please.
## Output Mid

## Input Which class does Cc1ccc(S[C@]2(C(=O)NCCN3CCOCC3)CC(=O)N(C3Cc4ccccc4C3)[C@@H]2c2ccc(CO)cc2I)cc1 fall in?
## Output High
